Test system: Sulfurihydrogenibium yellowstonense
assayInfo: Activation of Sulfurihydrogenibium yellowstonense recombinant CA by stopped flow CO2 hydrase method
For each entry below, report its log10(KA) value.
All values: base-10 log of KA in µM.

Task item: Return log10(KA) measured with Sulfurihydrogenibium yellowstonense given this compound: CNC[C@@H](O)c1ccc(O)c(O)c1
Reply: -0.17

Task item: Please answer likewise for N[C@H](Cc1ccc(O)c(O)c1)C(=O)O
Reply: -0.37

Task item: And for N[C@H](Cc1ccc(O)cc1)C(=O)O ?
Reply: -0.08

Task item: // repeat for N[C@@H](Cc1c[nH]c2ccccc12)C(=O)O and report
Reply: -2.15

Task item: Then this compound: NCCc1ccc(O)c(O)c1
Reply: -1.43

Task item: Can you handle Nc1ccc(C[C@H](N)C(=O)O)cc1 next?
Reply: -0.01

Task item: What do you have for N[C@@H](Cc1ccc(O)c(O)c1)C(=O)O ?
Reply: -1.05

---

System: Sulfurihydrogenibium azorense
assayInfo: Activation of Sulfurihydrogenibium azorense recombinant alpha carbonic anhydrase by stopped flow CO2 hydrase method
For each entry below, report its KA value.
State the answer as a number, implicitly in µM.

Task item: I have this compound here, N[C@@H](Cc1c[nH]c2ccccc12)C(=O)O , and I need its recorded KA.
Reply: 0.023

Task item: Subsequent entry: N[C@H](Cc1ccc(O)c(O)c1)C(=O)O
Reply: 0.89

Task item: Input N[C@@H](Cc1ccc(O)cc1)C(=O)O
Reply: 0.052

Task item: Follow-up entry: N[C@H](Cc1ccc(O)cc1)C(=O)O
Reply: 0.11

Task item: What do you have for N[C@@H](Cc1c[nH]cn1)C(=O)O ?
Reply: 0.071

Task item: Cool, now N[C@@H](Cc1ccc(O)c(O)c1)C(=O)O
Reply: 0.004

Task item: Try this compound next: NCCc1ccccn1
Reply: 0.34

Task item: // repeat for NCc1ccccn1 and report
Reply: 0.081

---

For each record, write down the corresponding KA.
Test system: Sulfurihydrogenibium azorense
assayInfo: Activation of Sulfurihydrogenibium azorense recombinant alpha carbonic anhydrase by stopped flow CO2 hydrase method
Lab book: enter the figure in µM, no units written.

Task item: Reported KA, molecule NCCc1c[nH]cn1 : ____
Reply: 0.1

Task item: For N[C@H](Cc1c[nH]c2ccccc12)C(=O)O then?
Reply: 0.003

Task item: Try this molecule next: Nc1ccc(C[C@H](N)C(=O)O)cc1
Reply: 0.09

Task item: Moving on to the next molecule: NCCc1c[nH]c2ccc(O)cc12
Reply: 0.007

Task item: Please do the same for CNC[C@@H](O)c1ccc(O)c(O)c1 as well.
Reply: 0.074

Task item: Would you mind doing NCCN1CCNCC1 as well?
Reply: 0.076

Task item: # iterate: NCCN1CCOCC1
Reply: 1.15

Task item: Entry to check: NCCc1ccc(O)c(O)c1
Reply: 0.011

Task item: Param item: N[C@H](Cc1c[nH]cn1)C(=O)O
Reply: 0.09
